Sourced from PubChem BioAssay

Test system: F380Y/beta1
PROCEDURE DETAILS: modulators of BK channel variants, profiling panel, selectivity assay, cell-based, U2OS BacMam, thallium flux, beta subunits (AID 1259406);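 further: initial slope of Thallos dye fluorescence rise after thallium is added; log ratio against the mean of 0.3% DMSO vehicle wells on the same plate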
CONDITION SET: at 30 µM
Everything with log fold change Tl+ flux lower than -0.01 is Not met; everything else, including exactly -0.01, is Met.

Field: example entries. Status: answers known.
CO[C@H]1/C=C/O[C@@]2(C)Oc3c(C)c(O)c4c(O)c(c(C=NN5CCN(C)CC5)c(O)c4c3C2=O)NC(=O)/C(C)=C\C=C\[C@H](C)[C@H](O)[C@@H](C)[C@@H](O)[C@@H](C)[C@H](OC(C)=O)[C@@H]1C	Not met
CSC(=S)NNC(=O)c1ccc(C(F)(F)F)cc1	Met
CO[C@H]1/C=C/O[C@@]2(C)Oc3c(C)c(O)c4c(O)c(c5c(c4c3C2=O)NC2(CCN(CC(C)C)CC2)N=5)=NC(=O)/C(C)=C\C=C\[C@H](C)[C@H](O)[C@@H](C)[C@@H](O)[C@@H](C)[C@H](OC(C)=O)[C@@H]1C	Not met
Cc1cc(N=CN(C)C)c2ccccc2n1	Met
CC(=O)C(=CN(C)C)Sc1ccc(Cl)cc1	Met
Cc1ccc(C(=O)c2c(-c3ccccc3)cc(-c3ccccc3)c3c2C(=O)CCC3)cc1	Not met
CC(C)n1c(SCC(=O)c2ccccc2)nc2cc(Cl)ccc21	Not met
Cc1ccc(I)cc1[N+](=O)[O-]	Not met

Lookup: Check the entry CN1[C@@H]2CC[C@H]1CC(OC(=O)C(CO)c1ccccc1)C2 (some centres undefined) : does log fold change Tl+ flux equal or exceed -0.01?
Found: Not met

Lookup: Check the entry CCOC(=O)C1CCC(C(=O)OCC)N1C(=O)Nc1ccc(Cl)cc1 (centres undefined) : does log fold change Tl+ flux equal or exceed -0.01?
Found: Met

Lookup: Check the entry Nc1nc(Cl)nc2c1ncn2[C@H]1C[C@H](O)[C@@H](CO)O1 : does log fold change Tl+ flux equal or exceed -0.01?
Found: Not met

Lookup: Check the entry O=C1c2c(O)cc(O)cc2O[C@H](c2ccc(O)c(O)c2)[C@@H]1O : does log fold change Tl+ flux equal or exceed -0.01?
Found: Met

Lookup: Check the entry Cc1cc(C)n2nc(Sc3ncccc3[N+](=O)[O-])nc2n1 : does log fold change Tl+ flux equal or exceed -0.01?
Found: Not met

Lookup: Check the entry CCOC(=O)c1cnc(C(F)(F)F)nc1NN=Cc1c(Cl)cccc1Cl : does log fold change Tl+ flux equal or exceed -0.01?
Found: Met

====

PROCEDURE DETAILS: Cy5 fluorescence quenching or enhancement artefacts, artefact control for HCV NS3 helicase inhibitor project, biochemical, LOPAC1280 (AID 687037)
CONDITION SET: Cy5-DNA-NS3h complex fluorescence interference counterscreen
Consider the following molecules; for each one, report its fluorescence ratio (interference).
Answers are plain numbers.

CN1[C@@H](CC(=O)c2ccccc2)CCC[C@H]1C[C@H](O)c1ccccc1	1
Nc1ncnc2n[nH]c(Nc3ccc(F)cc3)c12	1
CC(C)Cc1ccc([C@H](C)C(=O)O)cc1	0.9
C/C=C/CC(C)C(O)C1C(=O)NC(CC)C(=O)N(C)CC(=O)N(C)C(CC(C)C)C(=O)NC(C(C)C)C(=O)N(C)C(CC(C)C)C(=O)NC(C)C(=O)NC(C)C(=O)N(C)C(CC(C)C)C(=O)N(C)C(CC(C)C)C(=O)N(C)C(C(C)C)C(=O)N1C (stereo unspecified)	0.9
CCc1ccc2c(-c3cccc(Cl)c3)nc(=O)n(CC)c2n1	1
CCCCCCCCCCC(C)(C)C(=O)Nc1c(OC)cc(OC)cc1OC	1
COc1ccccc1N1CCN(CCN2C(=O)CC3(CCCC3)CC2=O)CC1	1
Nc1nc2ccc(Cl)cc2c2nc(-c3ccco3)nn12	1

For each of the molecules below, state fluorescence ratio (interference).
1. COc1ccccc1N1CCN(CCCCN2C(=O)c3ccccc3C2=O)CC1
2. CC(C)[C@@H]1CC[C@@H](C)C[C@@H]1P(=O)(c1ccccc1)c1ccccc1
3. Cc1cccc(/C=C/c2ccccc2)n1
4. CC(C)(Sc1ccc(CCN(CCCCC2CCCCC2)C(=O)NC2CCCCC2)cc1)C(=O)O
5. Nc1ccc(-c2nc3ccc(-c4nc5ccc(N)cc5[nH]4)cc3[nH]2)cc1
6. COC(=O)C1=C(C)NC(C)=C([N+](=O)[O-])C1c1ccccc1C(F)(F)F (stereo unspecified)
7. CC1CCN=C(N)S1 (stereo unspecified)

Found:
1: 1; 2: 1; 3: 1; 4: 1; 5: 0.6; 6: 0.9; 7: 1

Lookup: Endpoint output: fluorescence ratio (interference) of CN1C2CCC1CC(OC(c1ccccc1)c1ccccc1)C2 (stereo unspecified) . Value?
Found: 1

====

PROCEDURE DETAILS: growth inhibition of DIPG glioma cells, dose response, cell-based, SU-DIPG-XIII, MIPE4.0, CellTiter-Glo, qHTS (AID 1347061);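 further: cells exposed to compound for 48 hours before readout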
CONDITION SET: SU-DIPG-XIII viability, CellTiter-Glo ATP luminescence
Inconclusive results are not listed. Calls of active or inactive are those of the source. Cut-off not given; nearly all actives show AC50 up to about 37 µM.
Hi there, use one of these labels in your reply, thanks! True for active, False for inactive

Field: example entries. Status: answers known.
CC1=C(C(=O)O)N2C(=O)[C@@H](NC(=O)C(N)c3ccccc3)[C@H]2SC1 (stereo partly specified)	False
CC(=O)NC[C@H]1CN(c2ccc(N3CCOCC3)c(F)c2)C(=O)O1	False
CC(Oc1ccc(O)cc1)(P(=O)(O)O)P(=O)(O)O	False
Cc1cc2nc3c(=O)[nH]c(=O)nc-3n(CC(O)C(O)C(O)CO)c2cc1C (stereo unspecified)	False
O=C1C(Cl)=C(NCCN2CCOCC2)C(=O)c2ncccc21	True

Lookup: Hi team, can someone confirm the assay call for Cc1ccc(NC(=O)c2cccc(N(C)C)c2)cc1NC(=O)c1ccc(O)cc1 ?
Found: True

====

TESTED ON: Mitogen-activated protein kinase 7 (Homo sapiens)
PROCEDURE DETAILS: ERK5 transactivation activators in reporter cells, primary screen, cell-based, HTS (AID 1508626);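 further: luciferase driven by Gal4-ERK5 fusion binding five Gal4 sites before minimal TATA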
CONDITION SET: HeLa Gal4-ERK5 transactivation, 18 h, at 5 µM
Calls of active or inactive are those of the source.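 How the source made its calls: active means luciferase signal above three times the same-plate solvent-only control wells; inactive means the rest.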
Hi there, use one of these labels in your reply, thanks! True for active, False for inactive

Field: example entries. Status: answers known.
O=C(O)c1cc(=O)c(O)c2c(O)c(O)c(O)cc2c1	False
COc1cc2c(cc1OC)-c1c(oc3cc(O)cc(O)c3c1=O)CO2	False
COc1cc(/C=C/C(=O)N2CCC=CC2=O)cc(OC)c1OC	True
COc1ccc2oc3ccccc3c(=O)c2c1	False
CC[C@@H](C(=O)[C@@H](C)[C@@H](O)[C@H](C)[C@@H]1O[C@@H]([C@@H](CC)C(=O)O)CC[C@@H]1C)[C@H]1OC2(C=C[C@@H](O)[C@]3(CC[C@@](C)([C@H]4CC[C@](O)(CC)[C@H](C)O4)O3)O2)[C@H](C)C[C@@H]1C (some centres undefined)	False
CNc1ccccc1C(=O)N1CCc2c([nH]c3ccccc23)C1=O	False

Lookup: Hi team, can someone confirm the assay call for CC(C)(CO)C(O)C(=O)NCCCO (centres undefined) ?
Found: False

Lookup: Hi team, can someone confirm the assay call for CC(=O)Oc1c(C)c(C)c2c(c1C)CCC(C)(CCCC(C)CCCC(C)CCCC(C)C)O2 (centres undefined) ?
Found: False

Lookup: Hi team, can someone confirm the assay call for CC(C)=CCC/C(C)=C/COc1ccc2ccc(=O)oc2c1 ?
Found: False

====

TESTED ON: NAD(+) hydrolase SARM1 (Homo sapiens) (UniProt Q6SZW1)
Sequence (Q6SZW1 whole entry, looked up): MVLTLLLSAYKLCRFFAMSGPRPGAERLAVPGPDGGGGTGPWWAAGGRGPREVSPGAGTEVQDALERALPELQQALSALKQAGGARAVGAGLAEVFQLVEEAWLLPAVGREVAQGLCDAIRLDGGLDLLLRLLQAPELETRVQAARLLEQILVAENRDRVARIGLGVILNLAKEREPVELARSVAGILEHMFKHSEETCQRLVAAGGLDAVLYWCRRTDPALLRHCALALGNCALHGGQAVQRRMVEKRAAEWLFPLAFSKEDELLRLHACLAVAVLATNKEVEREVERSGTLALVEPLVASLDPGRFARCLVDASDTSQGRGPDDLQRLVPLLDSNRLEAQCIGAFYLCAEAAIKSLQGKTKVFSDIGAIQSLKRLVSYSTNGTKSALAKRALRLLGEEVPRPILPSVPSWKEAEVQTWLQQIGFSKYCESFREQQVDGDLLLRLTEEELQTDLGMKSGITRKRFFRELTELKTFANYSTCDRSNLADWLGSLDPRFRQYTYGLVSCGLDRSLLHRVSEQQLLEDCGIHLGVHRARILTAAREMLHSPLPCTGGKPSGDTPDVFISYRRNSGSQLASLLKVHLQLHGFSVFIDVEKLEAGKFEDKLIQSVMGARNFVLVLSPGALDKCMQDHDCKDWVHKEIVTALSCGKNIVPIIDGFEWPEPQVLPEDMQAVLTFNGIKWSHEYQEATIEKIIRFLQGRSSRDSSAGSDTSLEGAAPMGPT
PROCEDURE DETAILS: SARM1 TIR NADase inhibitors, cell lysate, NAD-Glo luminescence (AID 1508614);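 further: higher remaining NAD means stronger inhibition of SARM1 NADase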
CONDITION SET: SAM-TIR HEK293T lysate NADase, at 1 µM
Calls of active or inactive are those of the source.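 How the source made its calls: active means compound whose remaining NAD level is above about 45 nM (limit read from the data); inactive means the rest.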
Hi there, use one of these labels in your reply, thanks! true = active, false = inactive

O=C1CN2Cc3c(ccc(Cl)c3Cl)N=C2N1	false

Next up:
Lookup: Hi team, can someone confirm the assay call for C[C@@H](c1ncncc1F)[C@](O)(Cn1cncn1)c1ccc(F)cc1F ?
Found: false

====

PROCEDURE DETAILS: inhibition of 3D7 malaria parasite growth – strain 3D7 (AID 2306);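 further: 0% = DMSO wells and 100% = chloroquine plus artemisinin control wells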
CONDITION SET: P. falciparum 3D7 erythrocytic growth, LDH absorbance, 72 h; at 2 µM; active compounds read high
Calls of active or inactive are those of the source. The rule behind the calls is not given here.
Consider the following compounds; for each one, report its growth inhibition.

Some solved cases for reference:
CC(C)NCc1ccc(-c2ccc(NC(=O)c3cccc(C#N)c3)cc2)cc1	99% (active)
CC(C)(CNC(=O)C1CCN(Cc2ccc(Cl)cc2)CC1)c1nc(-c2ccc(Cl)c(O)c2)c(-c2ccncc2)[nH]1	100% (active)
CCOc1cc(C)ccc1C1CCN(CCCCNC(=O)c2cnc(-c3ccc(C(F)(F)F)cc3)[nH]2)CC1	95% (active)
CSc1ccc(NC(=O)Nc2cc(C)nc3ccccc23)cc1Br	101% (active)
c1ccc(CNc2nc(NCCc3cnc[nH]3)nc(N3CCCC4CCCCC43)n2)cc1 (stereo not given)	98% (active)

For each of the compounds below, state growth inhibition.
1. CCc1cc2c(Sc3nc4ccccc4[nH]3)ncnc2s1
2. CCCC(=O)Nc1ccc(OCCCCN(Cc2ccccc2C(F)(F)F)c2ccc(C(F)(F)F)c(C#N)c2)cc1
3. CC(C)c1ccc(NC(=O)c2cccc(CN3CCCN(Cc4cccc(O)c4)CC3)c2)cc1

Found:
1: 97% (active); 2: 94% (active); 3: 97% (active)

For each of the compounds below, state growth inhibition.
1. Cn1c(=O)c(-c2c(Cl)cccc2Cl)cc2cnc(Nc3ccc(N4CCOCC4)cc3)nc21
2. CCN(CC)CCNc1nccc(N(C)c2ccc(NC(=O)Nc3cc(C(F)(F)F)ccc3F)cc2)n1

Found:
98% (active)
97% (active)
